Cited source: patent US11524966B1

# SYSTEM_UNDER_TEST: USP28 (His-tagged USP28-FL-mammalian) (Homo sapiens, UniProt Q96RU2)
# Construct: Expression of USP28 (1-1077)-TEV-6*His (pTT5 vector); made in house; host or cells: Expi293f cells (pTT5 vector)
# Sequence (Q96RU2 whole entry): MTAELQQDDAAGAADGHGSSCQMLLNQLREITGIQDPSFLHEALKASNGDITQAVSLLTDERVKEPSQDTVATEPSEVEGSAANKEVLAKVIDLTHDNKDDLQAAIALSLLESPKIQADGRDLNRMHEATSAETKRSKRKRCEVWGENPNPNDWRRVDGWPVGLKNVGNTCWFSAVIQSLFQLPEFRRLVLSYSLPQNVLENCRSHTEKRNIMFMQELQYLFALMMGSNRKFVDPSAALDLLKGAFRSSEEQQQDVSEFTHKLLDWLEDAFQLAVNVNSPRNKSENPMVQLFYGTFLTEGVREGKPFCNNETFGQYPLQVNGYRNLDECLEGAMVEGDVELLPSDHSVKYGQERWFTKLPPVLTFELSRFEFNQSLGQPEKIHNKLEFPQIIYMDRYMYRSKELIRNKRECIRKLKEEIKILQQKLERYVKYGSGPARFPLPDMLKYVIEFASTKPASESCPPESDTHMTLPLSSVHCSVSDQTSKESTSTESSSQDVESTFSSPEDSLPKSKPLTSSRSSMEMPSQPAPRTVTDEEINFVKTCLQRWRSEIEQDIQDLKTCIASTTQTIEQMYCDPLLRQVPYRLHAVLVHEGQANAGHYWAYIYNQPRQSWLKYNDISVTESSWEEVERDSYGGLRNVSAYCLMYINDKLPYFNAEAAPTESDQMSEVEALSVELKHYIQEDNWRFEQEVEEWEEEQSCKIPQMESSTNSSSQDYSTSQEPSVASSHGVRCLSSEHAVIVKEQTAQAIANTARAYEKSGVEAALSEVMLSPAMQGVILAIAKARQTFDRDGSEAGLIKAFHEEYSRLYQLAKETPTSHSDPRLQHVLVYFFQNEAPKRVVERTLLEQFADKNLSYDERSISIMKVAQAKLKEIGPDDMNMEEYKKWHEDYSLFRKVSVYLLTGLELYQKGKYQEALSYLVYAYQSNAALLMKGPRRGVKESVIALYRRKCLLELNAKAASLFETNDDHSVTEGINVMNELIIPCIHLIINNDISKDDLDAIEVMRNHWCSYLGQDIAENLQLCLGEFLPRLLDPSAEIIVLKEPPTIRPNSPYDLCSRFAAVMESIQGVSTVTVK
# PROTOCOL: Ubiquitin-Rhodamine 110 Assay for USP28 Activity, Example A-1(a)
# Assay type: biochemical
# EXPERIMENTAL_CONDITIONS: Ubiquitin-Rhodamine 110 assay, Example A-1(a); read-out: USP28 A-1(a) IC50 range
pIC50: −log10 of the molar value.
Each entry below lists one item and its recorded pIC50 value.

Some solved cases for reference:
Cc1ccc2c(N)c(C(=O)N[C@H]3COc4cc(N5CC[C@@H]6CNC[C@@H]65)cc(F)c4C3)sc2n1 [Example 221]; 7.30 to 9.00
Cc1ccc2c(N)c(C(=O)N[C@H]3CCc4nc(N5C[C@@H](CF)[C@@H](N)C5)ccc4C3)sc2n1 (single isomer, unassigned) [Example 27-1]; 6.70 to 7.30
CO[C@H]1CN(c2ccc3c(c2)OC[C@H](NC(=O)c2sc4nc(C)ccc4c2N)C3)C[C@H]1N [Example 122]; 7.30 to 9.00
Cc1ccc2c(N)c(C(=O)N[C@H]3CCc4nc(N5CC[C@@]6(C5)OCC[C@H]6N)ccc4C3)sc2n1 [Example 405]; 6.70 to 7.30
Cc1ccc2c(N)c(C(=O)N[C@H]3CCc4nc(N5CC6CCC(C5)N6)cc(F)c4C3)sc2n1 [Example 23-18]; 7.30 to 9.00

Consider now this further compound.
Exercise: GET /values?readout=pIC50&item= O=C(N[C@@H]1CCc2c(c(F)cc(N3CC4CCC(C3)N4)c2C(F)F)C1)c1cnc2c(c1)[C@H]1C[C@H]1CN2 (single isomer, unassigned) [Example 362]
Key: 5.70 to 6.70

###

# SYSTEM_UNDER_TEST: USP25 (USP25-His6, Boston Biochem E-546) (Homo sapiens, UniProt Q9UHP3)
# Construct: His6; purchased Boston Biochem E-546
# Sequence (Q9UHP3 whole entry): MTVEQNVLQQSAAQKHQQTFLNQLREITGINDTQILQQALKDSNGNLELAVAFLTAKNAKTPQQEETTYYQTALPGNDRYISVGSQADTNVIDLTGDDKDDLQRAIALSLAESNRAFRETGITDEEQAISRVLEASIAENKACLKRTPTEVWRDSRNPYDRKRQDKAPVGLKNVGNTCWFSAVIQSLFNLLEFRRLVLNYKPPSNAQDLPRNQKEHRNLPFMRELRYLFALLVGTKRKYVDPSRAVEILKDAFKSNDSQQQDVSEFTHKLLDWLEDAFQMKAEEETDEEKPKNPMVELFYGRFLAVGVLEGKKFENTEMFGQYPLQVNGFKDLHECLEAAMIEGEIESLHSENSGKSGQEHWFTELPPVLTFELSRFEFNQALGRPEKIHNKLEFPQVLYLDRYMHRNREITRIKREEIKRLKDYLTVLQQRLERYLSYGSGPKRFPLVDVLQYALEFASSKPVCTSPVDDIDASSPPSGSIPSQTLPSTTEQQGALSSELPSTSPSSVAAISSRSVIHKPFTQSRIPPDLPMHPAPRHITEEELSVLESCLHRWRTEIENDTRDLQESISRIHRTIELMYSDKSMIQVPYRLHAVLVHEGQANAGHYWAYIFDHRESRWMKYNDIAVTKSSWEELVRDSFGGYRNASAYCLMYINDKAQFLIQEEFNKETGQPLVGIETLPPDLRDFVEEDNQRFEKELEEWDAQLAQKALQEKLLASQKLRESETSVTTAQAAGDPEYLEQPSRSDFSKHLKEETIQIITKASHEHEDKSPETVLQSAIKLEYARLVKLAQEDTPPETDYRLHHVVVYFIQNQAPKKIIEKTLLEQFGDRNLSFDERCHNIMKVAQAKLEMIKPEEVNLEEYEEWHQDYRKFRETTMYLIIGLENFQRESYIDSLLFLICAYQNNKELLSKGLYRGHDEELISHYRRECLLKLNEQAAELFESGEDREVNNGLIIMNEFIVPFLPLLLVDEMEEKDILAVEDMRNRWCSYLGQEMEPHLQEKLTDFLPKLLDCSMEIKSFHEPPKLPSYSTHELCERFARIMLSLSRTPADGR
# PROTOCOL: Ubiquitin-Rhodamine 110 Assay for USP25 Activity, Example A-2
# Format: biochemical
# EXPERIMENTAL_CONDITIONS: Ubiquitin-Rhodamine 110 assay, Example A-2; read-out: USP25 A-2 IC50 range
# Experimental: The assay was performed in a final volume of 9 μL in assay buffer containing 20 mM Tris-HCl (pH 8.0, (1M Tris-HCl, pH 8.0 solution; Corning 46-031-CM)), 3 mM BME (2-Mercaptoethanol; Sigma 63689-25ML-F), 0.03% BGG (0.22 μM filtered, Sigma, G7516-25G), and 0.01% Triton X-100 (Sigma, T9284-10L). […] Fluorescence was read on the Envision (Excitation at 485 nm and Emission at 535 nm; Perkin Elmer) or on the PheraSTAR (Excitation at 485 nm and Emission at 535 nm; BMG Labtech). […]
pIC50: −log10 of the molar value.
Each entry below lists one item and its recorded pIC50 value.

Cc1cnc2c(N)c(C(=O)N[C@@H]3CCc4cc(N5CCNC[C@H](O)C5)ccc4C3)sc2n1 (single isomer, unassigned); < 5.70
Cc1ccc2c(N)c(C(=O)N[C@H]3COc4cc(N5C[C@H](OC(F)(F)F)[C@@H](N)C5)ccc4C3)sc2n1 (single isomer, unassigned); 5.70 to 6.70
CO[C@@H]1CN(c2cc(F)c3c(c2)OC[C@H](NC(=O)c2sc4nc(C)ccc4c2N)C3)C[C@H]1N; 5.70 to 6.70
CO[C@H]1CN(c2ccc3c(n2)CC[C@H](NC(=O)c2sc4nc(C)ccc4c2N)C3)C[C@]1(C)N; < 5.70
O=C(N[C@H]1COc2cc(N3CCNCC3)ccc2C1)c1ccc(NCc2cccnc2)nc1; < 5.70
CCn1ccc2cc(C(=O)N[C@H]3COc4c(F)c([C@H]5CCNC[C@H]5O)cc(F)c4C3)nnc21; < 5.70
Cc1cnc2c(N)c(C(=O)N[C@H]3COc4cc(N5CC6CC(C5)N6)cc(F)c4C3)sc2n1; 6.70 to 7.30

Consider now this further compound.
Exercise: GET /values?readout=pIC50&item= Cc1ccc2c(N)c(C(=O)N[C@H]3COc4nc(N5CC6CNCC(C5)C6(F)F)ccc4C3)sc2n1
Key: 5.70 to 6.70
